Read-out: Cytochrome P450 (CYP2B6), CYP2B6 (gene 1555)
test-protocol: LTEA_HepaRG_CYP2B6: Life Technologies and Expression Analysis (LTEA) Assay for Cytochrome P450 (CYP2B6) using HepaRG (AID 2283481)
assay-context: mRNA level, 48 h; actives raise or lower the signal
Experimental: LTEA_HepaRG is a cell based, multiplexed-readout assay that uses HepaRG, a human liver cell line, with measurements taken at 48 hours after chemical dosing on a 96-well plate.LTEA_HepaRG_CYP2B6 is one of 102 assay component(s) measured in the LTEA HepaRG cell culture assay. It is a marker of NR mediated metabolism.Data from the assay component LTEA_HepaRG_CYP2B6 was analyzed into 1 endpoint. […]
The source made the active and inactive calls. How the source made its calls: active means hit-call score of the fitted dose curve at least 0.9, where 1 is the maximum; inactive means score below 0.9.
Thanks in advance; please answer with one of these: 1 (active), -1 (inactive)

>  <compound>
CC(C)(c1ccccc1)c1ccc(O)cc1

>  <label-class>
1

$$$$
>  <compound>
ClC1=C(Cl)[C@]2(Cl)[C@@H]3[C@@H]4C[C@@H]([C@H]5O[C@@H]45)[C@@H]3[C@@]1(Cl)C2(Cl)Cl

>  <label-class>
1

$$$$

Query: Look up the recorded call for O=C(O)C(F)(F)C(F)(F)C(F)(F)C(F)(F)C(F)(F)F in this test.
Result: 1

Query: Look up the recorded call for CCC(C)c1cc([N+](=O)[O-])cc([N+](=O)[O-])c1O (stereo not drawn) in this test.
Result: 1

Query: Look up the recorded call for Cc1ccccc1CO[C@@H]1C[C@@]2(C(C)C)CC[C@]1(C)O2 in this test.
Result: 1

Query: Look up the recorded call for CCOC(=O)C(O)(c1ccc(Cl)cc1)c1ccc(Cl)cc1 in this test.
Result: 1

Query: Look up the recorded call for CC1=C2C[C@H]3[C@@H](CC=C4C[C@@H](O)CC[C@@]43C)[C@@H]2CC[C@]12O[C@@H]1C[C@H](C)CN[C@H]1[C@H]2C in this test.
Result: -1

Query: Look up the recorded call for C[C@]12CCC(=O)C=C1CC[C@@H]1[C@@H]2CC[C@@]2(C)[C@H]1CC[C@]2(C)O in this test.
Result: 1

Query: Look up the recorded call for N#Cc1ccc(N(CC(N)=O)CC(F)(F)F)cc1C(F)(F)F in this test.
Result: 1

Query: Look up the recorded call for CC(C)(O)C(=O)Nc1ccc([N+](=O)[O-])c(C(F)(F)F)c1 in this test.
Result: 1

Query: Look up the recorded call for C=CC(=O)NCNC(=O)C=C in this test.
Result: -1

Query: Look up the recorded call for CN(C)c1nc(=O)n(C2CCCCC2)c(=O)n1C in this test.
Result: 1

Query: Look up the recorded call for O=C(O)C(F)(F)C(F)(F)C(F)(F)C(F)(F)C(F)(F)C(F)(F)C(F)(F)C(F)(F)F in this test.
Result: 1

Query: Look up the recorded call for C[C@]12CCC(=O)C=C1CC[C@@H]1[C@@H]2CC[C@]2(C)C(=O)CC[C@@H]12 in this test.
Result: -1

Query: Look up the recorded call for ClC1=C(Cl)[C@]2(Cl)[C@@H]3[C@@H](Cl)[C@H]4O[C@H]4[C@@H]3C1(Cl)C2(Cl)Cl in this test.
Result: 1

Query: Look up the recorded call for Cc1ccccc1O in this test.
Result: 1

Query: Look up the recorded call for CCCCCCCCCC[N+](C)(C)CCCCCCCCCC in this test.
Result: -1

Query: Look up the recorded call for CCOP(=S)(OCC)SCSC(C)(C)C in this test.
Result: -1

Query: Look up the recorded call for CN(C)CCO in this test.
Result: -1

Query: Look up the recorded call for CC(C)C(=O)OCC(C)(C)C(OC(=O)C(C)C)C(C)C (stereo not drawn) in this test.
Result: -1

Numbers sourced from PubChem BioAssay (EPA / NIEHS).
